ASSAY_SUMMARY: Compound solubility in water
Assay type: physicochemical
MEASUREMENT_PARAMETERS: read-out: Solubility in H2O
Parameter threshold = 9 µM. Response is Criterion met when solubility meets or exceeds it, else Criterion not met.

Is the recorded value of solubility equal to or greater than 9 µM for this molecule? Cn1c(=O)oc2cc(C3CCCN(C(=O)NCCCCc4ccccc4)C3)ccc21 (stereo not drawn) [Example 12]
Criterion not met

Please check the record Cn1c(=O)oc2cc(N3CCN(C(=O)NCCCCc4ccccc4)CC3=O)ccc21 [Example 63] and state if its solubility is at or above 9 µM.
Criterion met

Hi team, for CC1CC(c2ccc3c(c2)oc(=O)n3C)CCN1C(=O)NCCCCc1ccccc1 (mixture of isomers) [Example 16] , is the recorded solubility at or above 9 µM?
Criterion not met

Entry Cn1c(=O)oc2cc(C3CCN(C(=O)NCCC4CC4)C(C)(C)C3)ccc21 (stereo not drawn) [Example 29] : is its solubility no less than 9 µM?
Criterion met

Please tell me: is the molecule Cn1c(=O)oc2cc(N3CCN(C(=O)NCCCCc4ccccc4)CC3)ccc21 [Example 46] at or over 9 µM in terms of solubility?
Criterion not met

Can Cn1c(=O)oc2cc(C3CCN(C(=O)NCCOCc4ccccc4)C(C)(C)C3)ccc21 (stereo not drawn) [Example 27] be said to have solubility at or above 9 µM?
Criterion met

Evaluate CN1CCN(C(=O)NCCCCc2ccccc2)CC1c1ccc2c(c1)oc(=O)n2C (stereo not drawn) [Example 41] : solubility at minimum 9 µM?
Criterion met

Decide: solubility of Cn1c(=O)oc2cc(C3CCN(C(=O)NCCCCc4ccccc4)C(C)(C)C3)ccc21 (stereo not drawn) [Example 24] >= 9 µM?
Criterion not met

Check if solubility >= 9 µM (inclusive). Item: Cn1c(=O)oc2cc(N3CCN(C(=O)NCCCCC4CC4)C(C)(C)C3)ccc21 [Example 52]
Criterion not met

Say whether CC(C)CNC(=O)N1CCC(c2ccc3c(c2)oc(=O)n3C)C[C@@H]1C (stereo partly drawn) [Example 22] shows solubility of 9 µM or more.
Criterion met

Assess whether reported solubility for CC(C)CNC(=O)N1CCC(c2ccc3c(c2)oc(=O)n3C)CC1 [Example 3] sits at 9 µM or higher.
Criterion met

---

Assignment: determine reported solubility for the given compounds.
ASSAY_SUMMARY: Compound solubility in water
Type: physicochemical
MEASUREMENT_PARAMETERS: read-out: Solubility in H2O
Field format: number, assumed µM, no unit text.

# query: solubility of entry `Cn1c(=O)oc2cc(N3CCN(C(=O)NCCC4CC4)C(C)(C)C3)ccc21`
20.5

Param item = `Cn1c(=O)oc2c(C3CCN(C(=O)NCCCCc4ccccc4)CC3)cccc21` ; retrieve measured solubility.
13

Given `Cn1c(=O)oc2cc(N3CCN(C(=O)NCCOCc4ccccc4)C(C)(C)C3)ccc21` , state its recorded solubility.
3.5

Entry `Cn1c(=O)oc2cc(N3CCN(C(=O)NCCCCc4ccccc4)C(C)(C)C3=O)ccc21` : reported solubility = ?
6.8

---

Please go through the items and note down their IC50.
TGT: Human acid ceramidase (hACR) (Homo sapiens)
Construct: lysates of cells overexpressing acid ceramidase
Sequence (Q13510 22-395): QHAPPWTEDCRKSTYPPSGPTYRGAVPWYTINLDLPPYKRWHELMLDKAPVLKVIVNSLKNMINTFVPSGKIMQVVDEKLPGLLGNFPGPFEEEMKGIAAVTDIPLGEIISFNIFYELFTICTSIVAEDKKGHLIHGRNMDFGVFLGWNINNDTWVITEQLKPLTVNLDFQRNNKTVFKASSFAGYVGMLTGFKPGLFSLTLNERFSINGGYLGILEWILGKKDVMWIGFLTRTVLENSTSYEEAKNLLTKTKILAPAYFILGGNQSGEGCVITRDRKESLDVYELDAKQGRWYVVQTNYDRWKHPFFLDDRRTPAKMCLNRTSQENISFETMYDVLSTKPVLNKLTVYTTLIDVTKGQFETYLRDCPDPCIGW
ASSAY_SUMMARY: Acid ceramidase biochemical fluorescent assay (cell lysates overexpressing acid ceramidase, substrate Rbm14-12)
MEASUREMENT_PARAMETERS: 10 μg lysate protein, 1 hr preincubation at RT, pH 4.5, Rbm14-12 6.3 μM

Form entry - test system: Human acid ceramidase (hACR) (Homo sapiens); read-out: IC50; molecule: Cn1c(=O)oc2cc(C3CCCCN3C(=O)NCCCCc3ccccc3)ccc21 (centres unmarked)
> 1000 nM

# value lookup — system Human acid ceramidase (hACR) (Homo sapiens), readout IC50, item Cn1c(=O)oc2cc(C3CNCCN3C(=O)NCCCCc3ccccc3)ccc21 (centres unmarked)
> 1000 nM

Can you look up IC50 on Human acid ceramidase (hACR) (Homo sapiens) for CC(C)CNC(=O)N1CCC(c2ccc3c(c2)oc(=O)n3C)C[C@@H]1C (some centres unmarked) ?
200 to 1000 nM

// lookup IC50 | system=Human acid ceramidase (hACR) (Homo sapiens) | key= `Cn1c(=O)oc2cc(N3C[C@H]4CN(C(=O)NCCCCc5ccccc5)C[C@H]4C3)ccc21`
< 200 nM

Form field: IC50 recorded for CCCCCNC(=O)N1C(c2ccc3c(c2)oc(=O)n3C)COCC1(C)C (centres unmarked) with Human acid ceramidase (hACR) (Homo sapiens) (enter value)
< 200 nM

Please tell me: IC50 of Cn1c(=O)oc2cc(C3CC4CCC(C3)N4C(=O)NCCCCc3ccccc3)ccc21 (centres unmarked) , system Human acid ceramidase (hACR) (Homo sapiens)?
< 200 nM

What is its IC50 for Human acid ceramidase (hACR) (Homo sapiens)? Entry: `O=C(NCCCCc1ccccc1)N1CC2(CCN(c3ccc4[nH]c(=O)oc4c3)CC2)C1`
> 1000 nM

Reported IC50 for Human acid ceramidase (hACR) (Homo sapiens), given `Cn1c(=O)oc2cc(C3CCN(C(=O)NCCCCc4ccccc4)CC3)ccc21` ?
> 1000 nM
